- Tgt: Retinoic acid receptor alpha (Homo sapiens) (UniProt P10276)
- Sequence (P10276 whole entry, looked up): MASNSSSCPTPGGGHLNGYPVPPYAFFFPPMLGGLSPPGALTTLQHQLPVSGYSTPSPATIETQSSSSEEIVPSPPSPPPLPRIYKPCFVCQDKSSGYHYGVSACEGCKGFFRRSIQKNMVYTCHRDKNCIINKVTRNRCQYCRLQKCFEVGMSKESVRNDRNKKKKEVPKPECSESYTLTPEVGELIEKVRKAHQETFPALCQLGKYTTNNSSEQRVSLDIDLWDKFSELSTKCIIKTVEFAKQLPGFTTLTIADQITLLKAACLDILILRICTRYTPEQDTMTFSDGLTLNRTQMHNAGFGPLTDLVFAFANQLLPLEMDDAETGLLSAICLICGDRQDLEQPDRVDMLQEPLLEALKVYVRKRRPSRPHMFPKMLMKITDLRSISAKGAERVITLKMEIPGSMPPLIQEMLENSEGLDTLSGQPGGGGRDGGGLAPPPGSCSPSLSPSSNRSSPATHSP
- Test Protocol: ATG_RARa_TRANS: Attagene TRANS-FACTORIAL HepG2 Assay for human Retinoic Acid Receptor alpha (RARa) (AID 2283005)
Records with an inconclusive call do not appear. Calls of active or inactive are those of the source. Rule for the calls: active = hit-call score of the fitted dose curve at least 0.9, where 1 is the maximum; inconclusive = response in the unintended direction; inactive = score below 0.9.
Measurement Name: outcome

[[record]]
compound = "CC1=CP(=O)(c2ccccc2)CC1 (stereo not given)"
measurement_name = "outcome"
result = "inactive"

[[record]]
compound = "CCCCCCCCCCCC(C)=O"
measurement_name = "outcome"
result = "inactive"

[[record]]
compound = "C=C(C)C(=O)OCCOC(=O)C(=C)C"
measurement_name = "outcome"
result = "inactive"

[[record]]
compound = "CC(c1cc(C(C)(C)C)cc(C(C)(C)C)c1O)c1cc(C(C)(C)C)cc(C(C)(C)C)c1O"
measurement_name = "outcome"
result = "inactive"

[[record]]
compound = "CCCCCCCCCCCC(=O)N(C)CC(=O)O"
measurement_name = "outcome"
result = "inactive"

